# System: HOP-62 NSCLC
# assay.method.text: NCI-60 one-dose screen, 48 h (100 = growth as untreated, 0 = no growth, -100 = all killed)
# experimental.setup: 10 µM unless noted
About 83,000 compounds went through this panel and 20% of them were active in at least one assay; those are over-represented in the sample as a whole. *1 amine or outer side, *2 acyl side, *3 side chain or, on linkers, in order; H or OH if unused. Where a SMILES comes first, the peptide text is derived from it. Bridges are numbered along the chain shown (N, C = ends). Roman numbers before positions name the chains, in order. [ ]: non-standard residue; d: D form. Actinocin(1to9) = Cc1c2oc3c(C)ccc(C(=O)[*:2])c3nc-2c(C(=O)[*:1])c(N)c1=O; NMeV = CN[CH](C(=O)O)C(C)C; Sar = CNCC(=O)O
Classify as follows. Reported growth greater than or equal to 80%: 1.0. Reported growth below: 0.0.

1) Clc1ccc(Cc2nc3ccccc3s2)cc1 | 1.0
2) Cc1nn(CCO)c(C)c1N=[N+]([O-])c1c(C)nn(CCO)c1C | 1.0
3) CCC(C)C(N)C(=O)NC(CC(N)=O)C(=O)NC(CC(C)C)C(=O)NC(CCCCN)C(=O)NC(C)C(=O)NC(CC(C)C)C(=O)NC(C)C(=O)NC(C)C(=O)NC(CC(C)C)C(=O)NC(C)C(=O)NC(CCCCN)C(=O)NC(CCCCN)C(=O)NC(C(=O)NC(CC(C)C)C(N)=O)C(C)CC (centres undefined) | 0.0
4) Cc1ccc(N2C(=O)C=CC2=O)cc1 | 1.0
5) CCOC(=O)C1=NN(c2ccccc2)C(=O)/C1=C\N1C(=O)/C(=C/c2cccc(O)c2)SC1=S | 1.0
6) NC(=Nc1nc(-c2ccccn2)cc2ccccc12)c1ccccn1 | 0.0
7) O=C1C(=O)c2cccnc2-c2ncccc21 | 0.0
8) CCC(C)C1NC(=O)C(NC(=O)c2c3nc4c(C(=O)NC5C(=O)NC(C(C)CC)C(=O)N6CCCC6C(=O)N(C)CC(=O)N(C)C(C(C)C)C(=O)OC5C)ccc(C)c4oc-3c(C)c(=O)c2N)C(C)OC(=O)C(C(C)C)N(C)C(=O)CN(C)C(=O)C2CCCN2C1=O (centres undefined) (I: TIP[Sar][NMeV] / II: TIP[Sar][NMeV]; ester I:1-I:C, II:1-II:C; linker I:N-II:N via Actinocin(1to9); configuration not given here) | 0.0
9) CCOc1ccc2c(c1)/C(=C\C=C\C1CC(C)C3CC(OCC)CCC3N1CC)CC(C)N2CC (centres undefined) | 0.0

====

# System: SNB-75 CNS
# assay.method.text: NCI-60 one-dose screen, 48 h
# experimental.setup: 10 µM unless noted
About 83,000 compounds went through this panel and 20% of them were active in at least one assay; those are over-represented in the sample as a whole. The source made the active and inactive calls. Rule for the calls: active = growth percent below 10; inactive = the rest. *1 amine or outer side, *2 acyl side, *3 side chain or, on linkers, in order; H or OH if unused. Where a SMILES comes first, the peptide text is derived from it. Bridges are numbered along the chain shown (N, C = ends). Roman numbers before positions name the chains, in order. [ ]: non-standard residue; d: D form. The star is where a group is joined. Actinocin(1to9) = Cc1c2oc3c(C)ccc(C(=O)[*:2])c3nc-2c(C(=O)[*:1])c(N)c1=O; X5 = CCC(=O)CC1CC(C)CC(C(=O)[*:2])N1[*:1]; NMeV = CN[CH](C(=O)O)C(C)C; X4 = CCCCCCCCC(C)C(=O)*; Aib = CC(C)(N)C(=O)O; X6 = CC(CN(C)CCO)N*; Sar = CNCC(=O)O
Possible outcomes: active, inactive

1. Cc1onc(-c2ccccc2)c1C(=O)N/N=C/c1cc(Cl)cc(Cl)c1O | inactive
2. CCC(C)C1NC(=O)C(NC(=O)c2c3nc4c(C(=O)NC5C(=O)NC(C(C)CC)C(=O)N6CCCC6C(=O)N(C)CC(=O)N(C)C(C(C)C)C(=O)OC5C)ccc(C)c4oc-3c(C)c(=O)c2N)C(C)OC(=O)C(C(C)C)N(C)C(=O)CN(C)C(=O)C2CCCN2C1=O (stereo not given) (I: TIP[Sar][NMeV] / II: TIP[Sar][NMeV]; ester I:1-I:C, II:1-II:C; linker I:N-II:N via Actinocin(1to9); configuration not given here) | active
3. Nc1cc(-c2ccccc2)ccc1O | inactive
4. O=C(c1ccccc1)C(Br)[N+](=O)[O-] (stereo not given) | inactive
5. CCCCCCCCCCCCN1C(C)=CS/C1=C\C=C\c1scc(C)[n+]1CCCCCCCCCCCC | inactive
6. CC(C)=C1C=C2CC[C@@H]3[C@](C)(CCC[C@@]3(C)C(=O)O)[C@H]2CC1 | inactive
7. CC(/C=N/NC(N)=S)Cc1ccc(C(C)C)cc1 (stereo not given) | inactive
8. CCCCCCCCCCCC[n+]1ccccc1 (tested in a mixture with another compound) | active
9. CCCCCCCCCCCC1N=C(N)N=C(N)N1c1cccc(Br)c1 (stereo not given) | active
10. CCOC(=O)c1c(C)[nH]c2ccc(O)cc12 | inactive
11. OC(c1cc(-c2ccc(Cl)cc2)nc2c(Cl)cccc12)C1CCCCN1 (stereo not given) | active
12. CCN(CC)CC(O)CNc1ccc(NCC2CO2)c2c1C(=O)c1ccccc1C2=O (stereo not given) | active
13. COc1cc([C@@H]2c3cc4c(cc3[C@H](OC3OC5COC(c6ccccc6)OC5C(O)C3O)[C@H]3COC(=O)[C@H]23)OCO4)cc(OC)c1OC (stereo not given in full) | inactive
14. CCCCCCCCC(C)C(=O)N1CCCC1C(=O)N1C(CC(=O)CC)CC(C)CC1C(=O)NC(C)C(=O)NC(C)(C)C(=O)NC(C)(C)C(=O)NC(C(=O)NC(C)C(=O)NC(C)(C)C(=O)NC(C)(C)C(=O)NC(C)CN(C)CCO)C(C)CC (stereo not given) (X4-P[X5]A[Aib][Aib]IA[Aib][Aib]-X6; configuration not given here) | active
15. CCCCCCCCCCCCCCCCCC1=NCCCN1CCO | inactive

====

# Test system: NCI-H226 lung
# assay.method.text: NCI-60 one-dose screen, 48 h
# experimental.setup: 10 µM unless noted
# Description: Growth inhibition of the NCI-H226 human Non-Small Cell Lung tumor cell line is measured as a screen for anti-cancer activity. Cells are grown in 96 well plates and exposed to the test compound for 48 hours. Compounds are tested at a single concentration, which is 10^-5 M for most compounds. The reported endpoint is percent growth (GI% or GIPRCNT), where numbers from 0 - 100% represent growth inhibition, and numbers from -100% - 0 represent cell death. […]
This is part of a sample that, as a whole, favours compounds with a hit. Of some 83,000 tested, about 20% had one in any assay. Activity calls are given as the source filed them. Rule for the calls: active = growth percent below 10; inactive = the rest.
Possible outcomes: active, inactive

1) O=C1C=CC(=O)N1c1ccccc1 | inactive
2) CC1=CC(=NC(=O)CBr)C=C/C1=N\S(=O)(=O)c1ccccc1 | inactive
3) CC(O)C(O)C(O)C(O)C(O)C(=O)NNc1ccccc1 (configuration not stated) | inactive
4) CSc1nc(C)c(C(=O)CCN2CCN(c3ccccn3)CC2)s1 | inactive
5) CCOc1ccc(C(CN2CCOCC2)C(C)=O)cc1OC (configuration not stated) | inactive
6) NC(=Nc1nc(-c2ccccn2)cc2ccccc12)c1ccccn1 | inactive
7) O=C1C=CC(=O)N1C1CCCCCCCCCCC1 | inactive
8) O/N=C1\c2ccccc2-c2ccc(F)cc21 | inactive
9) OC(c1cc2ccc(C(F)(F)F)cc2c2cc(C(F)(F)F)ccc12)C1CCCCN1 (configuration not stated) | active
10) O=C(/C=C/C(Cl)(Cl)Cl)Nc1ccc(Cl)cc1 | inactive
11) CC1(C)OCC(COC(c2ccccc2)(c2ccccc2)c2ccccc2)O1 (configuration not stated) | inactive
12) Cc1ccc(/C=C2\CNC/C(=C\c3ccc(C)cc3)C2=O)cc1 | active

====

# System: T-47D breast
# assay.method.text: NCI-60 one-dose screen, 48 h
# experimental.setup: 10 µM unless noted
About 83,000 compounds went through this panel and 20% of them were active in at least one assay; those are over-represented in the sample as a whole. Active and inactive are the calls of the source. Rule for the calls: active = growth percent below 10; inactive = the rest.
Possible outcomes: class 1 = active, class 0 = inactive

1. Nc1ccc(Oc2ccccc2)c(Cl)c1 | class 0
2. N=C1C=C(N)C(=O)c2ccccc21 | class 1
3. COc1ccc2c(c1)c(CC(=O)O)c(C)n2C(=O)c1ccc(Cl)cc1 | class 0
4. COc1cc(/C=C2\SC(=S)N(/C=C/c3nc4ccccc4[nH]c3=O)C2=O)cc(OC)c1OC | class 0
5. CCCCCC[C@@H](O)C/C=C\CCCCCCCC(=O)OCCOC | class 0
6. CC12CCC(O)CC1=CCC1C2CCC2(C)C3=NN=CC3CC12 (stereo unspecified) | class 0

The reported measurements were obtained from PubChem BioAssay (NCI).
